B1: POU domain, class 3, transcription factor 2, residues 356 to 411; numbered along this chain, P20265 (parent)
chain: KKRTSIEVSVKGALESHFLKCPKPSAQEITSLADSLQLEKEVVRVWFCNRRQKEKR

# Variants of: B1
# assay-name: abundance fitness (aPCA) (normalised: wild type 0, dead -1); higher = more abundant; growth selection in yeast, the domain comes from the species named
# condition-description: Homo sapiens
So basically every entry gets a class from its abundance fitness, ranges being low bin: < -0.4; mid bin: ≥ -0.4 and < -0.06; high bin: ≥ -0.06

variant-string | assigned-class
K55N | high bin
E39A | mid bin
W46N | low bin
G12M | high bin
E54F | low bin
L38Q | low bin
E15Y | low bin
R44Y | low bin
N49D | high bin
D34E | high bin
L32I | mid bin
R3I | high bin
C21M | mid bin
L19P | low bin
T30L | mid bin
R56Q | mid bin
V8G | high bin
A26F | mid bin
K40H | high bin
K1Y | mid bin
A33W | low bin
L14K | low bin
K20M | mid bin
L14H | low bin
L32Q | low bin
D34F | high bin
N49A | mid bin
A26W | mid bin
K11P | mid bin
Q27N | high bin
G12E | high bin
S5A | high bin
V43I | mid bin
E54K | low bin
V43D | low bin
E28R | low bin
L19M | high bin
V42H | high bin
F18I | low bin
F47G | low bin
W46K | low bin
K53H | mid bin
S5K | high bin
Q27K | high bin
S9I | mid bin
L14S | low bin
A26M | high bin
H17Y | high bin
R56G | high bin
W46I | low bin
K55I | high bin
R44F | low bin
K23D | high bin
Q52M | high bin
P22Y | low bin
K55T | high bin
Q27G | mid bin
A33I | low bin
K11V | high bin
I29Q | low bin
Q52W | mid bin
Q37K | mid bin
Q37Y | mid bin
R50V | low bin
E41C | low bin
F18H | low bin
G12K | high bin
Q27A | mid bin
C48V | high bin
H17M | high bin
R3W | mid bin
E28L | mid bin
K1T | mid bin
K55D | high bin
V10Q | mid bin
L38S | low bin
G12H | high bin
L14F | low bin
K40C | mid bin
E54L | mid bin
Q27I | mid bin
K20Q | low bin
A13R | high bin
R51E | mid bin
K2P | low bin
F18D | low bin
D34S | high bin
K2R | mid bin
